Just for reference, patent US20100173332A1 is where these values come from.

Each record here notes measured increase in background florescence in culture media.
# assay_explanation: Aqueous stability in minimal essential media in the absence of cells (background fluorescence)
# Assay type: physicochemical
# test_context: 300 μM, minimal essential media, 37° C., 5% CO2, 355/460, over 7.8 hours
measurement_kind: increase in background florescence in culture media (fold)

INSERT INTO assay_data (compound, value_measured) VALUES
  ('COC(=O)c1cc2ccc([N+](=O)[O-])cc2oc1=O [methyl 7-nitrocoumarin carboxylate, reference compound]', 4.2),
  ('Cn1ccc(=O)c2cc([N+](=O)[O-])ccc21 [Compound 2, 1-Methyl-6-nitro-4(1H)-quinolinone]', 1.4),
  ('O=C(O)c1cc2ccc([N+](=O)[O-])cc2oc1=O [7-nitrocoumarin-3-carboxylic acid, reference compound]', 5.3),
  ('O=c1cc[nH]c2ccc([N+](=O)[O-])cc12 [Compound 1, 6-Nitro-4(1H)-quinolinone]', 1.4);
